Data credit: patent US20190351049A1

Field: IC50 against live virus (EMC2012). Provide a value for each of the binders that follow.
# target: MERS-CoV spike protein (EMC/2012), wt (MERS-CoV (isolate EMC/2012), UniProt K9N5Q8 18-1353)
# assayExplanation: cell-based or functional assay
Supply the numeric figure in nM, leaving out any unit text.

Query: Request the reported IC50 against live virus (EMC2012) associated with H2aM15287N (antibody, V domains shown) VH: QLQLQESGPGLVKPSETLSLTCTVSGGSISSGNYYWGWIRQPPGKGLEWFGTIYYSGSTYYNPSLKSRVTISVDTSKNQFSLKLSSVTAADTAVYYCARRAAVGHFDYWGQGTLVTVSS VL: DIQMTQSPSTLSASVGDRVTITCRASQSISTWLAWYQQKPGKAPKLLIYEASSLESGVPSRFSGSGFGTEFTLTISRLQPDDFATYFCQQYNTYWTFGQGTKVEIK
Response: 8.92

Query: Request the reported IC50 against live virus (EMC2012) associated with H1M15269N (antibody, V domains shown) VH: EVQLLESGGGLVQPGGSLRLSCPASGFTFSNYAMTWVRQAPGKGLEWVSAISGSGATTKYADSVKGRFTISRDNSRNTLYLQMNSLRAEDTAVYYCAKGGSGSYFPYYYYGLDVWGQGTTVTVSS VL: EIVMTQSPATLSVSPGDSATLSCRASQTVSSNLAWYQQKPGQAPRLLIYGASTRATGIPARFSGSGSGTEFTLTISSLQSEDFAVYYCQQYYNWWTFGQGTKVEIK
Response: 6.8

Query: Request the reported IC50 against live virus (EMC2012) associated with H2aM15279N (antibody, V domains shown) VH: EVQLLESGGGLVQTGGSLRLSCAASGFTFSNYAMSWVRQAPGKGLEWVSAISDRGGSIYYADSVKGRFTISRDNSKNTKYLQMDSLRAEDTAVYYCAQDRGFGVFDYWGQGTLVTVSS VL: DIQMTQSPSSLSASVGDRVTITCQASQDIGNYLNWFQQRPGKAPNLLIYGASNLETGVPSRFSGGGSGTDFTFTISSLQPEDIATYFCQQYDNLPFTFGPGTKVEIK
Response: 0.825
